Measured values drawn from paper PMC5342230 for this set.

Overview of recorded Kd for various compounds
system: catalytic subunit of human protein kinase CK2 (hCK2α) (Homo sapiens)
Construct: made in house
Sequence (P68400 whole entry): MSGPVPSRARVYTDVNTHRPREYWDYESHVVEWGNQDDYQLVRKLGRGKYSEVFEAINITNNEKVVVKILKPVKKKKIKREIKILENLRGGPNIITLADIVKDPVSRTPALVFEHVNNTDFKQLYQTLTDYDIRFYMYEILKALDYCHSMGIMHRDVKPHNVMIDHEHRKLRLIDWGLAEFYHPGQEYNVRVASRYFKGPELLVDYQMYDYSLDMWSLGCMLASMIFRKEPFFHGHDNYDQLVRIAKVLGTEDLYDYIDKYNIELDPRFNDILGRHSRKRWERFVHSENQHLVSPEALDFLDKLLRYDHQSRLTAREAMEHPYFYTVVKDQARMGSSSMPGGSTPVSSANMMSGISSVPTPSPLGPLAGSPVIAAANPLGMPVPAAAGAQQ
assay_remarks: Microscale Thermophoresis (MST), global fit of two independent binding sites
run_parameters: weak site, global fit of 6 pseudo-titrations, read-out: Kd2 (weak binding site)

| smiles_text | Kd [µM] |
| --- | --- |
| Brc1ccc2nn[nH]c2c1 | 6.3 |
| Brc1cc2nn[nH]c2cc1Br | 4.4 |
| Brc1cc2[nH]nnc2c(Br)c1Br | 4.6 |

---

system: catalytic subunit of human protein kinase CK2 (hCK2α) (Homo sapiens)
Construct: made in house
assay_remarks: Reverse ITC with MST-derived Kd (two types of binding sites, Kd constrained)
run_parameters: constrained based on the MST-derived binding affinities; read-out: Kd1
pKd: −log10 of the molar value.
Entries and their measured pKd follow.

| smiles_text | pKd |
| --- | --- |
| Brc1cc2[nH]nnc2c(Br)c1Br | 7.08 |
| Brc1cc2nn[nH]c2cc1Br | 7.09 |
| Brc1ccc2nn[nH]c2c1 | 6.61 |
